Assign melting point to each entry below.

CCCCOc1ccc(C=C(C#N)S(C)(=O)=O)cc1 :: 96.5 to 97 °C
CC(C)C(=O)[C@H]1CCn2c(cc3ccccc32)C1 :: 78 to 79 °C
Cc1cc(NCC(C)C)c2[nH]nc(-c3ccccc3)c2n1 :: 187 to 190 °C
O=C1C(CCO)Oc2ccc(F)cc2N1Cc1cccc([N+](=O)[O-])c1 (stereo unspecified) :: 110 to 112 °C
CC(C)(C(=O)O)c1ccc(CCNS(=O)(=O)c2ccccc2)cc1 :: 86 to 88 °C
CC(O)c1cccc(-c2ccc(CC34CCCN3C(=O)N(c3cc(Cl)cc(Cl)c3)C4=O)cc2)c1 (stereo unspecified) :: 66.5 °C
COc1cc2c(Nc3ccc(C)c(OC(C)=O)c3)ncnc2cc1OCc1cccnc1 :: 113 to 115 °C
CCc1nc2cc(COC)c(Cl)cc2n1-c1ccc(CCNC(=O)NS(=O)(=O)c2ccc(C)cc2)cc1 :: 135 °C

Batch lookup, melting point per entry.
1. Cc1cc(Cn2nnc(C(N)=O)c2N)cc(C)c1C(=O)c1ccc(Cl)cc1
2. O=C(O)CC1Cc2ccccc2NC1=O (stereo unspecified)
3. O=C(Nc1cccc(S(=O)(=O)NC2(CO)CCCC2)c1)c1cnn2c(C3CC3)cc(-c3ccc(Cl)cc3)nc12
4. CCNC(=O)Nc1cn(-c2cccnc2)nc1C
5. CCN(CC#N)S(=O)(=O)Cc1cccc(C(F)(F)F)c1
6. CCCN(CCC)CCc1ccc(OC)c2[nH]c(=O)[nH]c12

1: 208 to 209 °C; 2: 145 to 146 °C; 3: 255 to 257 °C; 4: 197 to 200 °C; 5: 67 to 68.5 °C; 6: 35 °C

Batch lookup, melting point per entry.
1. COC(=O)c1nc(-c2ccc(Cl)cc2F)nc(N)c1Br
2. O=S(=O)(Nc1ccc(C(F)(F)F)cc1Cl)c1cc(C(F)(F)F)ccc1Cl
3. COc1cc2c(Cl)c(C#N)cnc2c(OC)c1OC
4. Cc1c(Cl)c(=O)n(-c2cc(C(=O)OC(C)C)c(Cl)cc2F)c(=O)n1C
5. CCC(CC)c1nn(-c2ccc(C(F)(F)F)cn2)cc1CCCOc1c(CC(=O)O)ccnc1C
6. S=c1[nH]c(=S)c2ccccc2[nH]1
7. CCCc1cc2c(cc1O)CCO2

186 to 188 °C
122 to 123 °C
161 to 163 °C
150 to 153 °C
78 to 79 °C
234 to 237 °C
73 to 74 °C

###

Observation type: melting point

CCCn1cnc2cc(CN3CCN(C(c4ccccc4)c4ccccc4)CC3)ccc21 :: 155 °C

Batch lookup, melting point per entry.
1. O=C1Cc2ccc(C3CCCCC3)cc2O1
2. O=C(Nc1ccccc1)c1cc(Oc2ccc3c(c2)CCN3C(=O)Nc2cccc(C(F)(F)F)c2)ncn1
3. O=C1CC(C(F)(F)F)CC(=O)N1c1cc(OS(=O)(=O)c2ccccc2)c(Cl)cc1F
4. CC(O)(c1ccc(F)cc1)C1CCN(CCCC(=O)c2ccc(F)cc2)CC1 (stereo not given)

80 to 81 °C
227 to 229 °C
214 to 215 °C
116 to 118 °C

###

Assign melting point to each entry below.

O=S1(=O)N=Cc2cccc(Cl)c21 :: 162 to 164 °C
CC(C)(C)c1cc(C=CC#N)cc(C(C)(C)C)c1O :: 109 to 113 °C
COCNC(=O)OC(C(Oc1ccc(-c2ccccc2)cc1)n1cncn1)C(C)(C)C (stereo unspecified) :: 95 to 98 °C
CC1(C)CCSc2c(CC#Cc3ccc(O)cc3)cccc21 :: 95 °C
O=S1(=O)NCN(CCF)c2ccc(Br)cc21 :: 122 to 124 °C
C=Cn1cc(C(=O)O)c(=O)c2cc(F)c(Cl)cc21 :: 210 °C
CCCCCS(=O)(=O)NCC(=O)O :: 87 to 90 °C
Cc1c(N2C(=O)C=CC2=O)cccc1N1C(=O)C=CC1=O :: 210 to 212 °C

Batch lookup, melting point per entry.
1. Cc1nncn1-c1ccc(Cl)cc1C(=O)c1ccccc1Cl
2. CN(C)c1cc(C(O)CS(C)(=O)=O)cc(N(C)C)c1 (stereo unspecified)

["148 °C", "128 to 130 °C"]

melting point reading for "CC(C)c1ccc(-c2nc(=O)n(Cc3ccccc3)c3ccc(OCC#N)cc23)cc1" : 139 to 141 °C
